target: h-5-HT2B receptor (Homo sapiens, UniProt P41595)
Sequence (P41595 whole entry): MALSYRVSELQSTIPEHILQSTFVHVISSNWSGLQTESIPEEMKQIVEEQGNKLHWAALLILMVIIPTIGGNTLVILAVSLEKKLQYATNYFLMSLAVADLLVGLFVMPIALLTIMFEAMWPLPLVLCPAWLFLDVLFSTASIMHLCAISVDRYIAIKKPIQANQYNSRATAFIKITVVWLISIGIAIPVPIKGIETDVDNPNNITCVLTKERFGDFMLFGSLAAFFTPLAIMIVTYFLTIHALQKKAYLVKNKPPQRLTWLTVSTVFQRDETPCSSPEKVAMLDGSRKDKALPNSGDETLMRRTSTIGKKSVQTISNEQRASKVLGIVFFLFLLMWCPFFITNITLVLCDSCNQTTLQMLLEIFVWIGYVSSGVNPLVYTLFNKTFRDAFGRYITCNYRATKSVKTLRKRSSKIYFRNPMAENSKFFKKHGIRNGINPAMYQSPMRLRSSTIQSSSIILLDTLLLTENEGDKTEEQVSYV
pKi: −log10 of the molar value.
recorded_metric: pKi

• COc1ccc(S(=O)(=O)c2cccc(OC(F)F)c2)cc1N1CCN(C)CC1 = 7.15

* * *

Target: h-5-HT2A receptor (Homo sapiens)
Construct: purchased Perkin Elmer ES-3,3-M400UA; host or cells: CHO-K1 cell membranes
Sequence (P28223 whole entry): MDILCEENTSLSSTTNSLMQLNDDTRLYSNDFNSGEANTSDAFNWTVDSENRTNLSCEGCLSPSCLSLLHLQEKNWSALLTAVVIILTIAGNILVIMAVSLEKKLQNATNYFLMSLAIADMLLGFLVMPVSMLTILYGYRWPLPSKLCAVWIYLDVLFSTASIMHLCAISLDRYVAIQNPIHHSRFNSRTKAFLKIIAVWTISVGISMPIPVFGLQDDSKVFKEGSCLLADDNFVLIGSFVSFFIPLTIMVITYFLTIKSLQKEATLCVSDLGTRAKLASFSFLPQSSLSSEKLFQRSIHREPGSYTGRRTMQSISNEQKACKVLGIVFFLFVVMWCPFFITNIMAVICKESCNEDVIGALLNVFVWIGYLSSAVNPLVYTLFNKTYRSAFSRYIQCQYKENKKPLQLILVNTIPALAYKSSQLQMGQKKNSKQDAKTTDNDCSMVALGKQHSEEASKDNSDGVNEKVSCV
Assay: 5-HT2A receptor binding assay ([125I]-DOI displacement, CHO-K1 membranes)
Conditions: text; read-out: Ki at 5-HT2A receptor
Description: The cells were collected by centrifugation at 500 g for 10 min. at 4° C., washed with PBS and centrifuged (500 g, 10 min. 4° C.). The pellets were stored at −80° C. until use. […] Protein concentration was determined (BCA-Kit; Pierce) and aliquots stored at −80° C. or in liquid nitrogen for long-term storage. […]
recorded_metric: Ki

* COc1ccc(S(=O)(=O)c2cccc(OC(F)F)c2)cc1N1CCN(C)CC1 | 195 nM
